- targetEntity: T1, MutS N279A (Pseudomonas aeruginosa, UniProt Q9HY08 1-855, N279A)
- T1 sequence: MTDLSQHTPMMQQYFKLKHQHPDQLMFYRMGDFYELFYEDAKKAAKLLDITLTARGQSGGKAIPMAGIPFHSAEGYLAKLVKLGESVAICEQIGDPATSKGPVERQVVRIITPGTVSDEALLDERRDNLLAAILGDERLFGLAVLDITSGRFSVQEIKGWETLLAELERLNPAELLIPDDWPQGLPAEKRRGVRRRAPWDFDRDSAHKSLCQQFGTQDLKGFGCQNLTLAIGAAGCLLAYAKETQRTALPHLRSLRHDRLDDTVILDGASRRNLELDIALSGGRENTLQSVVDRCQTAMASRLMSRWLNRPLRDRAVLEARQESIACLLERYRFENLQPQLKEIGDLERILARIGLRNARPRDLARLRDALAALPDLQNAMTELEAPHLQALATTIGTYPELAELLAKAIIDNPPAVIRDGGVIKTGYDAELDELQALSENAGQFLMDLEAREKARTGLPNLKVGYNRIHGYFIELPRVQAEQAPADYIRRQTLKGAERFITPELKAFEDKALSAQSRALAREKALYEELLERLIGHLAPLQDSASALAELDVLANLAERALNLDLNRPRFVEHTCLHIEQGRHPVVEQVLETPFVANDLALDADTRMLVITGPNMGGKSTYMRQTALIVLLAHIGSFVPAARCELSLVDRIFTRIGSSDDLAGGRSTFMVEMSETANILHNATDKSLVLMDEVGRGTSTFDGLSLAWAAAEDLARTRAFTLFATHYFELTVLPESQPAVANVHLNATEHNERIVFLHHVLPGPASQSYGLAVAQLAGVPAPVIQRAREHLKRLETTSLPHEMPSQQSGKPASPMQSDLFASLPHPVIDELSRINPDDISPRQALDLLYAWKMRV
- assayProcedure: EMSA
readout: Kd (nM)
Dear colleague, please return just the value in nM, with no unit written.

q: Return reported Kd; argument: dsDNA (dsDNA) DNA 1: ATGTGAATCAGTATGGTTACTATCTGCTGAAGGAAAT DNA 2: ATTTCCTTCAGCAGATAGTAACCATACTGATTCACAT
a: 358

q: Return reported Kd; argument: pDNA (AT) (dsDNA) DNA 1: ATGTGAATCAGTATGGTTACTATCTGC DNA 2: ATTTCCTTCAGCAGATAGTAACCATACTGATTCACAT
a: 430

q: Return reported Kd; argument: GT-dsDNA (GT 18 nt from 3' end) (dsDNA) DNA 1: ATGTGAATCAGTATGGTTGCTATCTGCTGAAGGAAAT DNA 2: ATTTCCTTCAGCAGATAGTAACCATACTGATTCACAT
a: 41.3

q: Return reported Kd; argument: GT-pDNA (GT 8 nt from 3'-OH) (dsDNA) DNA 1: ATGTGAATCAGTATGGTTGCTATCTGC DNA 2: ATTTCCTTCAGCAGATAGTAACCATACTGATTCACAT
a: 63.2
